compounds and their reported IC50
- target_or_system: myeloperoxidase (MPO) (Homo sapiens)
- test: MPO peroxidation assay (Amplex Red assay)
- Format: biochemical
- stated_conditions: MPO peroxidation, potency range class; read-out: Amplex Red IC50

[
  {
    "compound": "COc1ncc(-c2ccc(COc3cc(N)nc4[nH]nnc34)c(C#N)c2)cn1",
    "IC50": "1 to 100 nM"
  }
]

Now for the compound whose IC50 we want.
INPUT: I would be grateful if you could share the reported IC50 for Nc1cc(OCc2cc(C(=O)N3CCC(O)C3)ccc2Cl)c2nn[nH]c2n1 (stereo not drawn) .
OUTPUT: 101 to 999 nM

====

- target_or_system: UniProt P05164
- test: MPO peroxidation assay (Amplex Red assay)
- Format: biochemical
- stated_conditions: MPO peroxidation, potency range class; read-out: Amplex Red IC50
pIC50: −log10 of the molar value.
compounds and their reported pIC50

[
  {
    "compound": "COc1cc(-c2ccc(COc3cc(N)nc4[nH]nnc34)c(OC(F)(F)F)c2)c(F)cn1 [Example 309]",
    "target_or_system": "UniProt P05164",
    "pIC50": "7.00 to 9.00"
  },
  {
    "compound": "Nc1cc(OCc2cccc(-c3cnn(Cc4ccccc4)c3)c2)c2nn[nH]c2n1 [Example 74]",
    "target_or_system": "UniProt P05164",
    "pIC50": "7.00 to 9.00"
  },
  {
    "compound": "Nc1cc(OCc2cc(C(=O)N3CCC[C@@H]3CO)ccc2Cl)c2nn[nH]c2n1 [Example 178]",
    "target_or_system": "UniProt P05164",
    "pIC50": "6.00 to 7.00"
  },
  {
    "compound": "NC(=O)c1cccc(COc2cc(N)nc3[nH]nnc23)c1Cl [Example 33]",
    "target_or_system": "UniProt P05164",
    "pIC50": "6.00 to 7.00"
  }
]

INPUT: I would be grateful if you could share the reported pIC50 for CN1CCN(c2ccc(-c3ccc(COc4cc(N)nc5[nH]nnc45)c(OC(F)(F)F)c3)cn2)CC1 [Example 300] .
OUTPUT: 7.00 to 9.00

INPUT: Next up: N#Cc1cc(-c2ccc(N)nc2)ccc1COc1cc(N)nc2[nH]nnc12 [Example 311]
OUTPUT: 7.00 to 9.00

====

molecules and their reported pIC50
- target_or_system: myeloperoxidase (MPO) (Homo sapiens)
- Sequence (P05164 49-745): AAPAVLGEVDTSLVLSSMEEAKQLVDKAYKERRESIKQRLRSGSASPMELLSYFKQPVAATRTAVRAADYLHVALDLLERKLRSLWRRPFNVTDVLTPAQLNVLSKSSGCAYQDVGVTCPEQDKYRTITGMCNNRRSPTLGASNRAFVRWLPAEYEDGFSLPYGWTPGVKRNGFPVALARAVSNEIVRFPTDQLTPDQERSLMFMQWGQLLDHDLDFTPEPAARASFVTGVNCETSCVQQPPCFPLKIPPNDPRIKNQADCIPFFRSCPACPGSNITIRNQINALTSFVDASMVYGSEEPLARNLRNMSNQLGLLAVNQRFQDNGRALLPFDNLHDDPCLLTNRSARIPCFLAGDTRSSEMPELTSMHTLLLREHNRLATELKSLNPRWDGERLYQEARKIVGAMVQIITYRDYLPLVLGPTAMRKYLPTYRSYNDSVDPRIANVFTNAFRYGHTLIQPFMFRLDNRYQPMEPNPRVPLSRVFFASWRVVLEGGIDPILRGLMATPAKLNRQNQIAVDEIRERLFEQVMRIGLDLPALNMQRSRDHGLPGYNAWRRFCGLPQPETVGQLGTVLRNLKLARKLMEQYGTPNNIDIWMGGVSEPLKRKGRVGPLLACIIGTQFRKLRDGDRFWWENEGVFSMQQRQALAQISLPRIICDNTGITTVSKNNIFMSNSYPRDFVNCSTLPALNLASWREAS
- test: MPO peroxidation assay (Amplex Red assay)
- Assay type: biochemical
- stated_conditions: MPO peroxidation, potency range class; read-out: Amplex Red IC50
pIC50: −log10 of the molar value.

Check out these entries, answers already filled in.
[
  {
    "molecule": "Nc1cc(OCc2cccc(-c3ncccn3)c2)c2nn[nH]c2n1",
    "reported": "7.00 to 9.00"
  },
  {
    "molecule": "COc1cccc(-c2ccc(COc3cc(N)nc4[nH]nnc34)cc2)c1",
    "reported": "6.00 to 7.00"
  },
  {
    "molecule": "Cc1ccc(-c2cccc(F)c2)cc1COc1cc(N)nc2[nH]nnc12",
    "reported": "7.00 to 9.00"
  },
  {
    "molecule": "COc1ccccc1-c1ccc(F)c(COc2cc(N)nc3[nH]nnc23)c1F",
    "reported": "7.00 to 9.00"
  },
  {
    "molecule": "Nc1cc(OCc2ccc(-c3ccc(CO)nc3)cc2OC(F)(F)F)c2nn[nH]c2n1",
    "reported": "7.00 to 9.00"
  }
]

INPUT: I would be grateful if you could share the reported pIC50 for "Nc1cc(OCc2cccc(-c3cccc(F)c3)c2F)c2nn[nH]c2n1" .
OUTPUT: 7.00 to 9.00

INPUT: Next up: "NC(=O)C1CCN(C(=O)c2ccc(COc3cc(N)nc4[nH]nnc34)c(Cl)c2)CC1"
OUTPUT: 6.00 to 7.00

INPUT: Next up: CCC(F)(F)C(Oc1cc(N)nc2[nH]nnc12)c1ccccc1 (single isomer, unassigned) [Example 137]
OUTPUT: 7.00 to 9.00

INPUT: Next up: "Nc1cc(OCc2c(F)ccc(-c3cncc(C(=O)N4CCOCC4)c3)c2Cl)c2nn[nH]c2n1"
OUTPUT: 6.00 to 7.00

====

- target_or_system: myeloperoxidase (MPO) (Homo sapiens, UniProt P05164)
- test: MPO peroxidation assay (Amplex Red assay)
- Type: biochemical
- stated_conditions: MPO peroxidation, potency range class; read-out: Amplex Red IC50
measured_endpoint: IC50

Check out these entries, answers already filled in.
[
  {
    "molecule": "Nc1cc(OCc2ccccc2OC(F)(F)F)c2nn[nH]c2n1 [Example 21]",
    "measured_endpoint": "IC50",
    "reported": "1 to 100 nM"
  },
  {
    "molecule": "N#Cc1cc(-c2ccc(N3CCCC3)nc2)ccc1COc1cc(N)nc2[nH]nnc12 [Example 326]",
    "measured_endpoint": "IC50",
    "reported": "1 to 100 nM"
  },
  {
    "molecule": "Nc1cc(OCc2cc(Cl)ccc2C(F)(F)F)c2nn[nH]c2n1 [Example 241]",
    "measured_endpoint": "IC50",
    "reported": "1 to 100 nM"
  },
  {
    "molecule": "CS(=O)(=O)c1ccc(COc2cc(N)nc3[nH]nnc23)c(Cl)c1 [Example 246]",
    "measured_endpoint": "IC50",
    "reported": "101 to 999 nM"
  },
  {
    "molecule": "N#Cc1cc(-c2ccc(F)nc2)ccc1COc1cc(N)nc2[nH]nnc12 [Example 330]",
    "measured_endpoint": "IC50",
    "reported": "1 to 100 nM"
  },
  {
    "molecule": "Nc1cc(OCc2cc(C(=O)Nc3cccc(Cl)c3)ccc2F)c2nn[nH]c2n1 [Example 49]",
    "measured_endpoint": "IC50",
    "reported": "1 to 100 nM"
  }
]

INPUT: I would be grateful if you could share the reported IC50 for COc1cc(Br)ccc1COc1cc(N)nc2[nH]nnc12 [Example 242] .
OUTPUT: 1 to 100 nM

INPUT: Next up: Nc1cc(OCc2cccc(Br)c2F)c2nn[nH]c2n1 [Example 62]
OUTPUT: 1 to 100 nM

INPUT: Next up: CC(Oc1cc(N)nc2[nH]nnc12)c1cccc(OC(F)(F)F)c1 (stereo not shown) [Example 143]
OUTPUT: 101 to 999 nM

INPUT: Next up: CC(Oc1cc(N)nc2[nH]nnc12)c1ccccc1F (stereo not shown) [Example 140]
OUTPUT: 101 to 999 nM

====

- target_or_system: myeloperoxidase (MPO) (Homo sapiens)
- test: MPO peroxidation assay (Amplex Red assay)
- Format: biochemical
pIC50: −log10 of the molar value.
measured_endpoint: pIC50

[
  {
    "compound": "Nc1cc(OCc2ccccc2Cl)c2nn[nH]c2n1 [Example 12]",
    "reported": "7.00 to 9.00"
  },
  {
    "compound": "Cc1c(COc2cc(N)nc3[nH]nnc23)cccc1-c1ccn(C)n1 [Example 81]",
    "reported": "7.00 to 9.00"
  }
]

INPUT: I would be grateful if you could share the reported pIC50 for Nc1cc(OCc2cc(-c3cccc(F)c3)ccc2Cl)c2nn[nH]c2n1 [Example 70] .
OUTPUT: 7.00 to 9.00

INPUT: Next up: Nc1cc(OCc2c(Cl)cccc2Cl)c2nn[nH]c2n1 [Example 234]
OUTPUT: 7.00 to 9.00

INPUT: Next up: Nc1cc(OCc2cccc(-c3cccc(F)c3)c2)c2nn[nH]c2n1 [Example 91]
OUTPUT: 7.00 to 9.00

INPUT: Next up: CS(=O)(=O)c1ccccc1COc1cc(N)nc2[nH]nnc12 [Example 232]
OUTPUT: 6.00 to 7.00

INPUT: Next up: Nc1cc(OCc2ccccc2-n2cccn2)c2nn[nH]c2n1 [Example 255]
OUTPUT: 6.00 to 7.00

INPUT: Next up: Cn1ccc(-c2cccc(COc3cc(N)nc4[nH]nnc34)c2)n1 [Example 5]
OUTPUT: 7.00 to 9.00

INPUT: Next up: Cc1c(COc2cc(N)nc3[nH]nnc23)cccc1-c1cccc(F)c1 [Example 68]
OUTPUT: 7.00 to 9.00

Origin of values: patent US10316035B2
